Recorded measurements of IC50, one per entry
target.desc: Cytochrome P450 2C9 (Homo sapiens, UniProt P11712)
Sequence (P11712 whole entry): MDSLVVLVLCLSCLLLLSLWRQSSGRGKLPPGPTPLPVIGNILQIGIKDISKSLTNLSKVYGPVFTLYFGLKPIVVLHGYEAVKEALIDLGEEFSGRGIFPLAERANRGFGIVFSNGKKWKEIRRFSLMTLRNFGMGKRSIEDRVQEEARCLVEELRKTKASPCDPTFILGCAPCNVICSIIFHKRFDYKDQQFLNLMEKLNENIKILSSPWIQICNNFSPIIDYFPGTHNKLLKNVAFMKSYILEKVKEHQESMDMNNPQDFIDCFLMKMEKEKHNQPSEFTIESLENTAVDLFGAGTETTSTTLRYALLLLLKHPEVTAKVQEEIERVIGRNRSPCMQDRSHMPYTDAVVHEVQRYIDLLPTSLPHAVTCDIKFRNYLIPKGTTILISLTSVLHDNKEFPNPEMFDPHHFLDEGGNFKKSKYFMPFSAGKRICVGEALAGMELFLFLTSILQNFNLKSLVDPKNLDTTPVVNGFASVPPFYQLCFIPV
assay: Inhibition of CYP2C9 preincubated with compound
Format: ADME

Ask: What value of measured IC50 is listed for `COc1ccc(Nc2nc3cc(C(N)=O)ccc3n2Cc2ccccc2C(F)(F)F)cc1` ?
Reply: > 4 µM

Ask: Also check `CS(=O)(=O)c1ccc(Nc2nc3cc(C(N)=O)ccc3n2Cc2ccccc2C(F)(F)F)cc1`
Reply: > 8 µM

Ask: Same thing, different compound: `CSc1ccc(Nc2nc3cc(C(N)=O)ccc3n2Cc2ccccc2C(F)(F)F)cc1`
Reply: > 7 µM

* * *

Please consider the recorded IC50 for UniProtKB P52732 in what follows.
measurement.label: IC50 (µM)

CS(=O)(=O)c1ccc(Nc2nc3cc(C(=O)O)ccc3n2Cc2ccccc2C(F)(F)F)cc1
6.9

[a] COc1ccccc1Cn1c(Nc2ccc(S(N)(=O)=O)cc2)nc2cc(C(N)=O)ccc21
[b] CNC(=O)c1ccc2c(c1)nc(Nc1ccc(S(N)(=O)=O)cc1)n2Cc1ccccc1C(F)(F)F
[c] COc1ccccc1NC(=O)c1ccc2c(c1)nc(Nc1ccc(S(N)(=O)=O)cc1)n2Cc1ccccc1C(F)(F)F
[d] CNC(=O)c1ccc2c(c1)nc(Nc1ccc(OC)cc1)n2Cc1ccccc1C(F)(F)F
Ask: Output the entries ranked by IC50 from maximum down to minimum. Respond with the label ranking, as requested.
Reply: a, b, d, c

* * *

target.desc: Cytochrome P450 2C9 (Homo sapiens)
assay: Inhibition of CYP2C9 coincubated with compound
Format: ADME
pIC50: −log10 of the molar value.
measurement.label: pIC50

CS(=O)(=O)c1ccc(Nc2nc3cc(C(N)=O)ccc3n2Cc2ccccc2C(F)(F)F)cc1
4.82

[A] CSc1ccc(Nc2nc3cc(C(N)=O)ccc3n2Cc2ccccc2C(F)(F)F)cc1
[B] COc1ccc(Nc2nc3cc(C(N)=O)ccc3n2Cc2ccccc2C(F)(F)F)cc1
Ask: Hi there! Just curious which has the higher pIC50 between A and B . Record your answer as the label of the chosen record.
Reply: B

* * *

// endpoint IC50 / system Kinesin-like protein KIF11 (Homo sapiens)
measurement.label: IC50 (µM)

Recorded IC50, per entry:
NC(=O)c1ccc2c(c1)nc(Nc1ccc(S(N)(=O)=O)cc1)n2Cc1ccccc1C(F)(F)F
7.4
COc1ccc(Nc2nc3cc(C(N)=O)ccc3n2Cc2ccccc2C(F)(F)F)cc1F
1.3
NC(=O)c1ccc2c(c1)nc(Nc1ccc(S(N)(=O)=O)cc1)n2Cc1csc2ccc(Cl)cc12
19

[A] COC(=O)c1ccc2c(c1)nc(Nc1ccc(SC)cc1)n2Cc1ccccc1C(F)(F)F
[B] COC(=O)c1ccc2c(c1)nc(Nc1ccc(OC)cc1)n2Cc1ccccc1C(F)(F)F
Ask: I would appreciate it if you could say which entry, A or B , has the lower IC50 value. Indicate your choice by writing its label.
Reply: B
(B: 13.4 µM, A: 33.4 µM)

[a] NC(=O)c1cc2nc(Nc3ccc(S(N)(=O)=O)cc3)n(Cc3ccccc3C(F)(F)F)c2cc1F
[b] COC(=O)c1ccc2c(c1)nc(Nc1ccc(S(N)(=O)=O)cc1)n2Cc1ccccc1C(F)(F)F
Ask: Pick one: a or b . Which has the bigger IC50 number? Write down the label of the entry you select.
Reply: a
(a: 7.9 µM, b: 2.2 µM)

* * *

// pIC50 lookup, one value per entry
target.desc: Cytochrome P450 3A4 (Homo sapiens)
Sequence (P08684 whole entry): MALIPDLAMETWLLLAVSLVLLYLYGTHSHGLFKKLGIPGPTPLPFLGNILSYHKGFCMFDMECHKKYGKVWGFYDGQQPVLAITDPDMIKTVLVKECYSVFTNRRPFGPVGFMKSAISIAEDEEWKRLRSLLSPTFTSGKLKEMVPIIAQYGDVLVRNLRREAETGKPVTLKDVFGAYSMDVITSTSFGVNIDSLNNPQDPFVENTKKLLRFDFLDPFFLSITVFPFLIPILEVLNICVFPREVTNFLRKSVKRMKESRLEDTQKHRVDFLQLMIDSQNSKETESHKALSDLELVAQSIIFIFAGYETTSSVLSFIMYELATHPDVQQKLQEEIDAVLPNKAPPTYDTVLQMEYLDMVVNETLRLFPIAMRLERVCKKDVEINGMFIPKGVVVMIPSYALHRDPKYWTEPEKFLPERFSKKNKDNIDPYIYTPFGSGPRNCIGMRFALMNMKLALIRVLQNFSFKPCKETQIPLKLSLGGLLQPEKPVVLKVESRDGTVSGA
assay: Inhibition of CYP3A4 preincubated with compound
Assay type: ADME
pIC50: −log10 of the molar value.

The cases that follow already have their pIC50 on record.
COc1ccc(Nc2nc3cc(C(N)=O)ccc3n2Cc2ccccc2C(F)(F)F)cc1
< 4.82
CSc1ccc(Nc2nc3cc(C(N)=O)ccc3n2Cc2ccccc2C(F)(F)F)cc1
> 4.82

For the next question, use this molecule.
Ask: Name the reported pIC50 value associated with the molecule `CS(=O)(=O)c1ccc(Nc2nc3cc(C(N)=O)ccc3n2Cc2ccccc2C(F)(F)F)cc1`
Reply: < 4.70

* * *

Test system: Rattus norvegicus
assay: AUC in rat at 10 mg/kg after 6 hrs
Format: ADME, organism-based, Plasma
Design: time < 6 hr, dose 10 mg/kg
assay.conditions: in vivo
measurement.label: AUC (nM·h)

[A] COc1ccc(Nc2nc3cc(C(N)=O)ccc3n2Cc2ccccc2C(F)(F)F)cc1
[B] CSc1ccc(Nc2nc3cc(C(N)=O)ccc3n2Cc2ccccc2C(F)(F)F)cc1
[C] CS(=O)(=O)c1ccc(Nc2nc3cc(C(N)=O)ccc3n2Cc2ccccc2C(F)(F)F)cc1
Ask: Order by AUC, ascending. Give your ranking as a list of the labels in the requested order.
Reply: C, B, A
(C: 0 nM·h, B: 150 nM·h, A: 600 nM·h)

* * *

target.desc: Kinesin-like protein KIF11 (Homo sapiens)
Sequence (P52732 whole entry): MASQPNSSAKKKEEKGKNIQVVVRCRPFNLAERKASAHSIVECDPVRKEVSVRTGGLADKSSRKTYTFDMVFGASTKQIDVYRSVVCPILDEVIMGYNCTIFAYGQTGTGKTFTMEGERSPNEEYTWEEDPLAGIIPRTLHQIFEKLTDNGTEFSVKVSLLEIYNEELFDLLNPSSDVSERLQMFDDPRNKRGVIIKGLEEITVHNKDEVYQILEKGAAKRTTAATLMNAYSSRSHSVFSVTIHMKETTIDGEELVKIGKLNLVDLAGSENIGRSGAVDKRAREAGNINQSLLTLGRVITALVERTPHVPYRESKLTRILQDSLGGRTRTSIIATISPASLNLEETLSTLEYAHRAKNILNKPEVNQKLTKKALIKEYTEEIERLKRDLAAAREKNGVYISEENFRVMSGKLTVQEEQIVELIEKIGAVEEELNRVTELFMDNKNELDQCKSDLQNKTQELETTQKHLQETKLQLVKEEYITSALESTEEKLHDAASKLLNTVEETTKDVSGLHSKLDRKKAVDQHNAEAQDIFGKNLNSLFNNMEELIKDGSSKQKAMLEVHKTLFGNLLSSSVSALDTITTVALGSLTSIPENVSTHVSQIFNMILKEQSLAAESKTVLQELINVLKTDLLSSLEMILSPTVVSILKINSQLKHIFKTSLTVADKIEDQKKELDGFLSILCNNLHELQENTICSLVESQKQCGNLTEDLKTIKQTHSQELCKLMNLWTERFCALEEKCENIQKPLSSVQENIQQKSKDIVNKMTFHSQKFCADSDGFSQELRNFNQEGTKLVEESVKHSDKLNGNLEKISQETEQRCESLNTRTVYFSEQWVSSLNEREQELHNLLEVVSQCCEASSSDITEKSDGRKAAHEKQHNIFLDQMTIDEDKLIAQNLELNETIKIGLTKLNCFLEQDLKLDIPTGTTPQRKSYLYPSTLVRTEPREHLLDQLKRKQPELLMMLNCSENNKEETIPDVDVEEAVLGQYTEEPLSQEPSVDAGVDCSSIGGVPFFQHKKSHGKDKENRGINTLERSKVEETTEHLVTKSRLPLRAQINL
assay: Selectivity for human KSP over HSET
measurement.label: fold change (FC)

COc1ccc(Nc2nc3cc(C(N)=O)ccc3n2Cc2ccccc2C(F)(F)F)cc1F
11

[P] CSc1ccc(Nc2nc3cc(C(N)=O)ccc3n2Cc2ccccc2C(F)(F)F)cc1
[Q] NC(=O)c1ccc2c(c1)nc(Nc1ccc(S(N)(=O)=O)cc1)n2Cc1ccccc1C(F)(F)F
Ask: Please tell me which of the two, P or Q , has the higher reported fold change (FC) value. // caller expects the label of the chosen entry
Reply: P
(P: 8, Q: 5)
